assay: amyloid nucleation score (Sup35N fusion, yeast selection) (log enrichment); library NNK3; higher = more nucleation; inactive = no reads after selection;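 further: zero at mode of non-aggregating sequences after 7 days selection at 30°C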
measurement_kind: amyloid nucleation score

Field: example entries. Status: answers known.
>  <substance>
AIPLYWIEFRVRKLSSLFLQ

>  <amyloid nucleation score>
inactive

$$$$
>  <substance>
FLFRRLGRSYYKYAV

>  <amyloid nucleation score>
inactive

$$$$
>  <substance>
NWYVECYITYSLVLYLANDS

>  <amyloid nucleation score>
1.69

$$$$
>  <substance>
MSTMFVPLSCFSENKRQTLS

>  <amyloid nucleation score>
inactive

$$$$
>  <substance>
VVQGGGELVWFMFYDARCGT

>  <amyloid nucleation score>
inactive

$$$$

Give measured amyloid nucleation score for every item shown.
1. MVHPDTRKRQTRGTG
2. HMGNKRLCYCSSR
3. GVCRVVRSNHCMLWFRLDSS
4. RVVPMVTVGKIRKNLMD
5. IGKRIFKLCVMYGYYLHLNF
6. MSPPCFNRMSYIMLPWFVML
7. LVFASSVSSSDLTLCVGSCM

## Output
["inactive", -0.326, "inactive", "inactive", "inactive", "inactive", -0.594]

Give measured amyloid nucleation score for every item shown.
1. FSSRDWNYSSRMVKIRNGRF
2. NRIFSLTM
3. LSDWKFDMCYCFFVLCQELW
4. IDSAEASCIGCLVRQCADPI

## Output
1. inactive
2. inactive
3. inactive
4. inactive

----------
assay: amyloid nucleation score (Sup35N fusion, yeast selection) (log enrichment); library NNK2; higher = more nucleation; inactive = no reads after selection
Threshold check on amyloid nucleation score: at or above -0.09 gives satisfied, strictly below gives not satisfied.

Answered examples (6):
>  <substance>
RASANYRSSYFERSPDVVRE

>  <group_label>
satisfied

$$$$
>  <substance>
LGLCLHLISSFRHRYAVLSR

>  <group_label>
not satisfied

$$$$
>  <substance>
WCTIHYDLMLVVRTNSSRSI

>  <group_label>
satisfied

$$$$
>  <substance>
RGAAGILFTSLIFMSVYALI

>  <group_label>
not satisfied

$$$$
>  <substance>
TPFAHSGSWCNSERLVPRLV

>  <group_label>
satisfied

$$$$
>  <substance>
VFTGNLICYMDGGTGFSCFQ

>  <group_label>
satisfied

$$$$

## Input Hello, I need to know if SILIFTLTCSDRNW has measured amyloid nucleation score not below -0.09. Thanks!
## Output not satisfied

## Input Hello, I need to know if NRQRRPRLVDKYGASRGVVY has measured amyloid nucleation score not below -0.09. Thanks!
## Output satisfied

## Input Hello, I need to know if MQISKQTFPHNWVVYRSDYG has measured amyloid nucleation score not below -0.09. Thanks!
## Output not satisfied

----------
experiment: amyloid nucleation score (Sup35N fusion, yeast selection) (log enrichment); library NNK1; higher = more nucleation; inactive = no reads after selection
Threshold check on amyloid nucleation score: at or above 0.05 gives 1, strictly below gives -1.

Answered examples (4):
>  <substance>
MNKFNCRIMDDSDSALFSIA

>  <group_label>
1

$$$$
>  <substance>
VISIFVEF

>  <group_label>
1

$$$$
>  <substance>
SSGYSGSCVNINWC

>  <group_label>
1

$$$$
>  <substance>
DIVPSTPELFI

>  <group_label>
-1

$$$$

## Input Hello, I need to know if YGNWFYIFFS has measured amyloid nucleation score not below 0.05. Thanks!
## Output 1

## Input Hello, I need to know if HTVKAK has measured amyloid nucleation score not below 0.05. Thanks!
## Output -1

## Input Hello, I need to know if SFVRGFYVNFRFSKGILDMF has measured amyloid nucleation score not below 0.05. Thanks!
## Output -1
